target: Substance-K receptor (Rattus norvegicus) (UniProt P16610); assay: Allosteric modulation of rat NK2 receptor expressed in HEK293 cells assessed as formation of active receptor calcium-triggering conformation at 10 uM in presence of 20nM NKA-Bo by FRET assay; type: functional, cell-based
Sequence (P16610 whole entry): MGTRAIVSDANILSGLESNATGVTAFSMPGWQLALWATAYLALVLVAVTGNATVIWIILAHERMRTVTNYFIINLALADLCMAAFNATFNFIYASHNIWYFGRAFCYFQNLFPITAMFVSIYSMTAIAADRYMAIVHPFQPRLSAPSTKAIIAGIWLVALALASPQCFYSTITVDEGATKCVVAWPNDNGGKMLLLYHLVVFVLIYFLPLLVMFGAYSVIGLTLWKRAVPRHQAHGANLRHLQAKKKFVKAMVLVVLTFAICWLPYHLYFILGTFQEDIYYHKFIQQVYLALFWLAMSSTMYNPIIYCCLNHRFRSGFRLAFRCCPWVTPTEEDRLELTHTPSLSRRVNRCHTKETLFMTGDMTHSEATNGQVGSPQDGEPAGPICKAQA
Measure: Activity (%)

In the examples that follow, each entry is paired with its recorded Activity.
>>> meas_value("c1ccc(CN(Cc2ccc3ccccc3c2)c2ccccn2)cc1")
56
>>> meas_value("N#CCN(Cc1ccccc1)Cc1cnc2ccccc2c1")
46
>>> meas_value("C#CCN(Cc1ccccc1)Cc1ccc2ccccc2c1")
51
>>> meas_value("N#CCN(Cc1ccccc1)Cc1ccc2ccccc2c1")
50

1. O=C(O)CN(Cc1ccccc1)Cc1ccc2ccccc2c1
2. CCCCNC(=O)CN(Cc1ccccc1)Cc1ccc2ccccc2c1
Looking at 1 and 2 , which one comes out lower in Activity terms? # reply format: chosen label
1
(1: 35%, 2: 54%)
